Quick reference for kon among some molecules
systemTested: T1, HumanB7-H4 (Homo sapiens, UniProt Q7Z7D3)
T1 construct: Human B7H4 ECD; FLAG; 10His; made in house
T1 sequence (Q7Z7D3 25-259 limits assumed): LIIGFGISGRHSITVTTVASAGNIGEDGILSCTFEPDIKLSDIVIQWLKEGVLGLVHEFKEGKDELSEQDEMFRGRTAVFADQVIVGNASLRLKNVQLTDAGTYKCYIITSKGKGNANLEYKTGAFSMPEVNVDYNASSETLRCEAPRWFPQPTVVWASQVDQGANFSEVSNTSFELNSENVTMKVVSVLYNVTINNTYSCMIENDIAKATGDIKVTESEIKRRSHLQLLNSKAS
experimentNotes: ForteBio Octet affinity
Type: binding
recordedConditions: hIgG1-TM (n = 4-7)
property: kon (M⁻¹ s⁻¹)

| molecule | property | recordedNumber |
| --- | --- | --- |
| ZY0E05-E07: anti-B7-H4 antibody clone, VH SEQ ID NO: 37, VL SEQ ID NO: 38 (antibody, V domains shown) VH: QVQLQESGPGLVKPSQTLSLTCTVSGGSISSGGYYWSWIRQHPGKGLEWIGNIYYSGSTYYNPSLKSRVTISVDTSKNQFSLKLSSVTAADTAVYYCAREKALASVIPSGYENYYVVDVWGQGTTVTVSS VL: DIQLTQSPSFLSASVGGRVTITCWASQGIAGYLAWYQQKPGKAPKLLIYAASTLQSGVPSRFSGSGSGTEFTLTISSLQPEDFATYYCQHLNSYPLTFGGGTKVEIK | kon | 17100 |
| ZY0EOB-F05: anti-B7-H4 antibody clone, VH SEQ ID NO: 35, VL SEQ ID NO: 36 (antibody, V domains shown) VH: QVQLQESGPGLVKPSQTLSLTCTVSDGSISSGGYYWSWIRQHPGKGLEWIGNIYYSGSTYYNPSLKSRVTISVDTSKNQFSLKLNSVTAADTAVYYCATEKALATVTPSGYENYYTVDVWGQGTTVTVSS VL: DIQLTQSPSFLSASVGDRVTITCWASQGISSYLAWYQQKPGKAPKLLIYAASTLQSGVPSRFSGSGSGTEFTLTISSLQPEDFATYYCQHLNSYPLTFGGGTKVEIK | kon | 26500 |
| ZY0EPQ-E02: anti-B7-H4 antibody clone, VH SEQ ID NO: 31, VL SEQ ID NO: 32 (antibody, V domains shown) VH: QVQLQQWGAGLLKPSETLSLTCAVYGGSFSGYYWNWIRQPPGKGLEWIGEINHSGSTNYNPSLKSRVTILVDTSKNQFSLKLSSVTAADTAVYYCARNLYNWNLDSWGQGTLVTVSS VL: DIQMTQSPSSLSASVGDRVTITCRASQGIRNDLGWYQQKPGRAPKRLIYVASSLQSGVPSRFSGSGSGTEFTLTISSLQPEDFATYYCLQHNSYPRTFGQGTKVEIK | kon | 70900 |

Data provenance: patent US20240239894A1
